Here the recorded minimal effective concentration is given for each entry.
test system: third stage larvae of Haemonchus contortus; assay: Haemonchus contortus, Larvae Stage 3 (HcL3) In Vitro Assay; format: cell-based; conditions: Haemonchus contortus, 96 h, read-out: HcL3 MED, Minimum Effective Dose, H. contortus third stage larvae, approximately 96 hours
Return type: number; implicit unit µM.

The following molecules have reported results that may help.
MOLECULE: Cc1csc(Cc2ccc(C[C@H]3OC(=O)[C@H](CC(C)C)N(C)C(=O)[C@@H](C)OC(=O)[C@H](CC(C)C)N(C)C(=O)[C@@H](Cc4ccc(Cc5cc(C)cs5)cc4)OC(=O)[C@H](CC(C)C)N(C)C(=O)[C@@H](C)OC(=O)[C@H](CC(C)C)N(C)C3=O)cc2)c1 [Example 3-124]
minimal effective concentration [µM]: 0.3
//
MOLECULE: CCN(CC)C(c1ccc(C[C@H]2OC(=O)[C@H](CC(C)C)N(C)C(=O)[C@@H](C)OC(=O)[C@H](CC(C)C)N(C)C(=O)[C@@H](Cc3ccccc3)OC(=O)[C@H](CC(C)C)N(C)C(=O)[C@@H](C)OC(=O)[C@H](CC(C)C)N(C)C2=O)cc1)c1ccc(F)c(F)c1 (stereo partly shown) [Example 2-36]
minimal effective concentration [µM]: 1

// recorded minimal effective concentration for COc1cc(C)c(Cc2ccc(C[C@H]3OC(=O)[C@H](CC(C)C)N(C)C(=O)[C@@H](C)OC(=O)[C@H](CC(C)C)N(C)C(=O)[C@@H](Cc4ccc(Cc5cnc(OC)cc5C)cc4)OC(=O)[C@H](CC(C)C)N(C)C(=O)[C@@H](C)OC(=O)[C@H](CC(C)C)N(C)C3=O)cc2)cn1 [Example 3-133] : 57
